System Under Test: Vitamin K-dependent gamma-carboxylase (Rattus norvegicus) (UniProt O88496)
Assay Name: Relative activity for […] rat liver vitamin K dependent carboxylase mediated carboxylation of pentapeptide at 1 mM.
Type: functional, tissue-based
Peptide text beside a SMILES is read from it.
Metric Name: Relative activity

Example cases with answers are listed next.
Molecule	System Under Test	Observed Value
CC(C)(C)OC(=O)N[C@H](CCC(=O)O)C(=O)NCc1ccccc1	Vitamin K-dependent gamma-carboxylase (Rattus norvegicus) (UniProt O88496)	< 1%
CC(C)C[C@H](NC(=O)[C@H](CCC(=O)O)NC(=O)[C@H](CCC(=O)O)NC(=O)[C@H](CC(C)C)NC(=O)[C@H](Cc1ccccc1)NC(=O)c1ccccc1)C(=O)O (HELM PEPTIDE1{[O=C(c1ccccc1)[*:2]].F.L.E.E.L}$$$$V2.0)	Vitamin K-dependent gamma-carboxylase (Rattus norvegicus) (UniProt O88496)	27%

// Relative activity value for COC(=O)[C@H](CC(C)C)NC(=O)[C@@H](CCC(=O)O)NC(=O)[C@H](CCC(=O)O)NC(=O)[C@H](CC(C)C)NC(=O)[C@H](Cc1ccccc1)NC(=O)OC(C)(C)C : < 1%

---

System Under Test: Vitamin K-dependent gamma-carboxylase (Rattus norvegicus)
Sequence (whole entry): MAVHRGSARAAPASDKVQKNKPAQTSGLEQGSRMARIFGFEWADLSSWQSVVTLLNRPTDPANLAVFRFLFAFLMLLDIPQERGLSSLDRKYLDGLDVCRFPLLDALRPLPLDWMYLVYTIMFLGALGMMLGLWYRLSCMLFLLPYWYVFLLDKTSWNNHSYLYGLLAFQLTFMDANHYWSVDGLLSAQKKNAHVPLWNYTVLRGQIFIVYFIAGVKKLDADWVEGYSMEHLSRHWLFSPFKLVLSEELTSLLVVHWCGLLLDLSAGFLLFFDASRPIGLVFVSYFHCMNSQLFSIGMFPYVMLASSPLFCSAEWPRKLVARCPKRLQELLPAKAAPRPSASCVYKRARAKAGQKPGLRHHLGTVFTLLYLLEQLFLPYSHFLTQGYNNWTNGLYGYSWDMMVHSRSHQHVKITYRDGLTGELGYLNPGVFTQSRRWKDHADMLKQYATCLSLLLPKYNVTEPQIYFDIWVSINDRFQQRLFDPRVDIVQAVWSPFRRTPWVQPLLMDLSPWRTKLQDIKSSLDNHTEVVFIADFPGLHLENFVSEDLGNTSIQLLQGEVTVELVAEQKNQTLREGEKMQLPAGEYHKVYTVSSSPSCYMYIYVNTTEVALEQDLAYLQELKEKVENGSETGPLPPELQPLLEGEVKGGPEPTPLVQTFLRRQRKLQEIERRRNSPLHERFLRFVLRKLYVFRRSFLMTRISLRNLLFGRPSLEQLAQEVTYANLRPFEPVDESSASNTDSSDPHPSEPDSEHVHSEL
Assay Name: Relative activity for […] rat liver vitamin K dependent carboxylase mediated carboxylation of pentapeptide at 1 mM.
Format: functional, tissue-based
Metric Name: Relative activity

Example cases with answers are listed next.
> print(dat)
                                   compound        metric.name  observed.value
1  COC(=O)[C@H](CC(C)C)NC(=O)[C@@H](CCC(=O)O)NC(=O)[C@H](CCC(=O)O)NC(=O)OC(C)(C)C  Relative activity            < 1%
2  COC(=O)NC(=O)[C@H](CC(C)C)NC(=O)[C@H](CCC(=O)O)NC(=O)C(CCC(=O)O)NC(=O)OC(C)(C)C (stereo partly drawn)  Relative activity            < 1%

Turning now to a further compound:
// Relative activity value for COC(=O)[C@H](CC(C)C)NC(=O)[C@@H](CCC(=O)O)NC(=O)[C@@H](CCC(=O)O)NC(=O)OC(C)(C)C : < 1%

---

System Under Test: Vitamin K-dependent gamma-carboxylase (Rattus norvegicus)
Assay Name: Relative activity for […] rat liver vitamin K dependent carboxylase mediated carboxylation of pentapeptide at 1 mM.
Format: functional, tissue-based
Metric Name: Relative activity

> print(dat)
                                        mol  observed.value
1  COC(=O)[C@H](CC(C)C)NC(=O)[C@H](CCC(=O)O)NC(=O)[C@@H](CCC(=O)O)NC(=O)OC(C)(C)C            < 1%
2  COC(=O)[C@H](CC(C)C)NC(=O)[C@H](CCC(=O)O)NC(=O)[C@@H](CCC(=O)O)NC(=O)[C@H](CC(C)C)NC(=O)[C@H](Cc1ccccc1)NC(=O)OC(C)(C)C            < 1%

Turning now to a further molecule:
// Relative activity value for COC(=O)[C@H](CC(C)C)NC(=O)[C@@H](CCC(=O)O)NC(=O)[C@@H](CCC(=O)O)NC(=O)[C@H](CC(C)C)NC(=O)[C@H](Cc1ccccc1)NC(=O)OC(C)(C)C : < 1%
